- protocol text: physchem
readout type: pKa

# molecular string, endpoint result
rows = [
    ("COc1ccc(S(=O)(=O)n2ccc3ccc(Br)cc32)cc1N1CCNCC1", 8.68),
    ("COc1ccc(S(=O)(=O)n2cc(C(F)F)c3cc(F)ccc32)cc1N1CCNCC1", 8.78),
    ("COc1ccc(S(=O)(=O)n2cc(C(F)F)c3cc(Cl)ccc32)cc1N1CCNCC1", 8.66),
    ("COc1ccc(S(=O)(=O)n2cc(C)c3ccc(F)cc32)cc1N1CCNCC1", 8.78),
    ("COc1ccc(S(=O)(=O)n2cc(C(F)F)c3ccc(F)cc32)cc1N1CCNCC1", 8.62),
]

* * *

- protocol text: physchem
- particulars: octanol/water
readout type: logP

# molecular string, readout type, endpoint result
data = [
    ("COc1ccc(S(=O)(=O)n2cc(C(F)F)c3cc(Cl)ccc32)cc1N1CCNCC1", "logP", 3.85),
    ("COc1ccc(S(=O)(=O)n2cc(C(F)F)c3ccc(F)cc32)cc1N1CCNCC1", "logP", 3.39),
    ("COc1ccc(S(=O)(=O)n2cc(C)c3ccc(F)cc32)cc1N1CCNCC1", "logP", 3.3),
    ("COc1ccc(S(=O)(=O)n2cc(C)c3cc(F)ccc32)cc1N1CCNCC1", "logP", 3.22),
    ("COc1ccc(S(=O)(=O)n2ccc3ccc(Br)cc32)cc1N1CCNCC1", "logP", 3.73),
    ("COc1ccc(S(=O)(=O)n2cc(C(F)F)c3cc(F)ccc32)cc1N1CCNCC1", "logP", 3.31),
]

* * *

Cmax at 24 h values for the compounds below.
- protocol text: in vivo
- particulars: Sprague-Dawley, rat, iv, 2 mg/kg
Form entry: value (ng/mL) — number only.

# molecular string, unit text, endpoint result
measured = [
    ("COc1ccc(S(=O)(=O)n2cc(C(F)F)c3ccc(F)cc32)cc1N1CCNCC1", "ng/mL", 77),
]

Turning to the following compound.
QUERY: Complete the entry with Cmax at 24 h for COc1ccc(S(=O)(=O)n2ccc3ccc(Br)cc32)cc1N1CCNCC1
RESULT: 133

* * *

- protocol text: in vivo
- particulars: Sprague-Dawley, rat, po, 5 mg/kg
AUC(0-t) at 24 h values for the compounds below.
Form entry: value (µg·h/mL) — number only.

# molecular string, AUC(0-t) at 24 h, µg·h/mL
records = [
    ("COc1ccc(S(=O)(=O)n2ccc3ccc(Br)cc32)cc1N1CCNCC1", 0.032),
]

Turning to the following compound.
QUERY: Complete the entry with AUC(0-t) at 24 h for COc1ccc(S(=O)(=O)n2cc(C(F)F)c3ccc(F)cc32)cc1N1CCNCC1
RESULT: 0.102

* * *

- protocol text: in vivo
- particulars: Sprague-Dawley, rat, po, 5 mg/kg
readout type: bioavailability at 24 h (%)
Form entry: value (%) — number only.

# molecular string, bioavailability at 24 h (%)
data = [
    ("COc1ccc(S(=O)(=O)n2cc(C(F)F)c3ccc(F)cc32)cc1N1CCNCC1", 14.4),
]

Turning to the following compound.
QUERY: Complete the entry with bioavailability at 24 h for COc1ccc(S(=O)(=O)n2ccc3ccc(Br)cc32)cc1N1CCNCC1
RESULT: 9.35
